Recorded Average LSU (×1000) by entry
Assay overview: TurboSol solubility evaluation in physiological saline
Type: physicochemical
Test context: 30 μM; HB-PS+0.3% DMSO

Take a look at these entries with their results.
>>> observed_result("C[C@]12CC=C3C=C4CC[C@@H](N5CC[C@@H](N)C5)C[C@]45CC[C@]3(O5)[C@@H]1CC[C@@H]2c1ccc2ccncc2c1")
"8.6 LSU (×1000)"
>>> observed_result("C[C@]12CC=C3C=C4CC[C@@H](N5CCCC5)C[C@]45CCC3(O5)[C@@H]1CC[C@@H]2c1ccc2ccncc2c1")
"8.7 LSU (×1000)"
>>> observed_result("C[C@]12CC=C3C=C4CC[C@@H](N5C[C@H](O)[C@@H](O)C5)C[C@]45CC[C@]3(O5)[C@@H]1CC[C@@H]2c1ccc2ccncc2c1")
"16.6 LSU (×1000)"

Qu. Which Average LSU (×1000) value belongs to `C[C@]12CC=C3C=C4CC[C@@H](O)C[C@]45CC[C@]3(O5)[C@@H]1CC[C@@H]2c1ccc2ccncc2c1` ?
Ans. 41.0 LSU (×1000)

Qu. Which Average LSU (×1000) value belongs to `C[C@]12CC=C3C=C4CC[C@@H](N5CC(N)C5)C[C@]45CC[C@]3(O5)[C@@H]1CC[C@@H]2c1ccc2ccncc2c1` ?
Ans. 13.0 LSU (×1000)

###

Measurement target: Opiate μ(OP3, MOP) (Homo sapiens, UniProt P35372)
Sequence (P35372 whole entry): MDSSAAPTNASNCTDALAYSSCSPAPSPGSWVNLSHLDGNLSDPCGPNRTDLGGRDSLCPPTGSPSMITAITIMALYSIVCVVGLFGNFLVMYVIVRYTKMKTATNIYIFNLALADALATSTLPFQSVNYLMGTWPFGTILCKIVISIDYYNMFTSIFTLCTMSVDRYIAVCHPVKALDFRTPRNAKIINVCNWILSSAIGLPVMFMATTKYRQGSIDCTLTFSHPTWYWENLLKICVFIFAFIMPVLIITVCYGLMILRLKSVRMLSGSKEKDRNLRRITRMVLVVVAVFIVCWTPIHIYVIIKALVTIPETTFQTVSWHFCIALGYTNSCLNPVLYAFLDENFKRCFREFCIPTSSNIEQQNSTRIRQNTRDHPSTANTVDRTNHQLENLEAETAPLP
Observable: IC50 (µM)
Provide only the numeric value, understood in µM.

Qu. Query IC50 on Opiate μ(OP3, MOP) (Homo sapiens, UniProt P35372) for `C[C@]12CC=C3C=C4CC[C@@H](O)C[C@]45CC[C@]3(O5)[C@@H]1CC[C@@H]2c1ccc2ccncc2c1`
Ans. 5.73

###

Measurement target: CDK8 (Homo sapiens, UniProt P49336)
Sequence (P49336 whole entry): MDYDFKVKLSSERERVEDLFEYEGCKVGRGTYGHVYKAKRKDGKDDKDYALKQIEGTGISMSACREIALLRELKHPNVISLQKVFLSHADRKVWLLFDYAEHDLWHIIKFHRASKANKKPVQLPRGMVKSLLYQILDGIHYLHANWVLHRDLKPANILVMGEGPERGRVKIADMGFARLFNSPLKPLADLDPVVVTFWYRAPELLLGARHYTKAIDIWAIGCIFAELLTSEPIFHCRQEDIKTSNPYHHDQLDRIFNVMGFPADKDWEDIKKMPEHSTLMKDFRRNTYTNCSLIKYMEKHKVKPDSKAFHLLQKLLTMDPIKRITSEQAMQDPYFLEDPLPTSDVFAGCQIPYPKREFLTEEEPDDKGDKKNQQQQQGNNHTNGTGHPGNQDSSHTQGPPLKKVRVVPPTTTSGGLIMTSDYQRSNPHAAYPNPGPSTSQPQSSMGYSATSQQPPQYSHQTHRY
Sequence (P24863 whole entry partner): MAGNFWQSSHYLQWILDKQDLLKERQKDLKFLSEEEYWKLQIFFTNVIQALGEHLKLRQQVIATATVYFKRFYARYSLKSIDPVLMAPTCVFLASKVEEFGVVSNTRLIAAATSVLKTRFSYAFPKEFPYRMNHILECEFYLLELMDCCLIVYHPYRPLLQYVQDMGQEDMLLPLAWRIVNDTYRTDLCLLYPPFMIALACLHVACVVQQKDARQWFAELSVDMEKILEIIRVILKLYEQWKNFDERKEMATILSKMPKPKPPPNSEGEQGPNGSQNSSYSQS
Observable: Kd (nM)
Provide only the numeric value, understood in nM.

Take a look at these entries with their results.
>>> observed_result("C[C@]12CC=C3C=C4CC[C@@H](N5C[C@H](O)[C@@H](O)C5)C[C@]45CC[C@]3(O5)[C@@H]1CC[C@@H]2c1ccc2ccncc2c1")
0.2
>>> observed_result("C[C@]12CC=C3C=C4CC[C@@H](O)C[C@]45CC[C@]3(O5)[C@@H]1CC[C@@H]2c1ccc2ccncc2c1")
0.23
>>> observed_result("C[C@]12CC=C3C=C4CC[C@@H](N5CC(N)C5)C[C@]45CC[C@]3(O5)[C@@H]1CC[C@@H]2c1ccc2ccncc2c1")
0.22

Now consider a different compound.
Qu. Query Kd on CDK8 (Homo sapiens, UniProt P49336) for `C[C@]12CC=C3C=C4CC[C@@H](N5CC[C@@H](N)C5)C[C@]45CC[C@]3(O5)[C@@H]1CC[C@@H]2c1ccc2ccncc2c1`
Ans. 0.19

###

Assay overview: Pharmacokinetic profile in mice (plasma, LC-MS/MS)
Test context: CD-1, mouse, plasma, po, 10 mg/kg
Observable: bioavailability (%)
Provide only the numeric value, understood in %.

>>> observed_result("C[C@]12CC=C3C=C4CC[C@@H](N5CC[C@@H](N)C5)C[C@]45CC[C@]3(O5)[C@@H]1CC[C@@H]2c1ccc2ccncc2c1")
19.8
>>> observed_result("C[C@]12CC=C3C=C4CC[C@@H](O)C[C@]45CC[C@]3(O5)[C@@H]1CC[C@@H]2c1ccc2ccncc2c1")
43.9
>>> observed_result("C[C@]12CC=C3C=C4CC[C@@H](N5CC(N)C5)C[C@]45CC[C@]3(O5)[C@@H]1CC[C@@H]2c1ccc2ccncc2c1")
42.3

Now consider a different compound.
Qu. Which bioavailability value belongs to `C[C@]12CC=C3C=C4CC[C@@H](N5C[C@H](O)[C@@H](O)C5)C[C@]45CC[C@]3(O5)[C@@H]1CC[C@@H]2c1ccc2ccncc2c1` ?
Ans. 15

###

Recorded Average LSU (×1000) by entry
Assay overview: TurboSol solubility evaluation in physiological saline
Format: physicochemical
Test context: 10 μM; HB-PS+0.3% DMSO

>>> observed_result("C[C@]12CC=C3C=C4CC[C@@H](O)C[C@]45CC[C@]3(O5)[C@@H]1CC[C@@H]2c1ccc2ccncc2c1")
"9.0 LSU (×1000)"
>>> observed_result("C[C@]12CC=C3C=C4CC[C@@H](N5CC[C@@H](N)C5)C[C@]45CC[C@]3(O5)[C@@H]1CC[C@@H]2c1ccc2ccncc2c1")
"4.5 LSU (×1000)"
>>> observed_result("C[C@]12CC=C3C=C4CC[C@@H](N5CCCC5)C[C@]45CCC3(O5)[C@@H]1CC[C@@H]2c1ccc2ccncc2c1")
"6.4 LSU (×1000)"
>>> observed_result("C[C@]12CC=C3C=C4CC[C@@H](N5C[C@H](O)[C@@H](O)C5)C[C@]45CC[C@]3(O5)[C@@H]1CC[C@@H]2c1ccc2ccncc2c1")
"7.0 LSU (×1000)"

Now consider a different compound.
Qu. Which Average LSU (×1000) value belongs to `C[C@]12CC=C3C=C4CC[C@@H](N5CC(N)C5)C[C@]45CC[C@]3(O5)[C@@H]1CC[C@@H]2c1ccc2ccncc2c1` ?
Ans. 4.9 LSU (×1000)

###

Assay overview: Pharmacokinetic profile in mice (plasma, LC-MS/MS)
Test context: CD-1, mouse, plasma, po, 10 mg/kg
Observable: Tmax (h)
Provide only the numeric value, understood in h.

Take a look at these entries with their results.
>>> observed_result("C[C@]12CC=C3C=C4CC[C@@H](N5CC(N)C5)C[C@]45CC[C@]3(O5)[C@@H]1CC[C@@H]2c1ccc2ccncc2c1")
8
>>> observed_result("C[C@]12CC=C3C=C4CC[C@@H](N5CC[C@@H](N)C5)C[C@]45CC[C@]3(O5)[C@@H]1CC[C@@H]2c1ccc2ccncc2c1")
2
>>> observed_result("C[C@]12CC=C3C=C4CC[C@@H](O)C[C@]45CC[C@]3(O5)[C@@H]1CC[C@@H]2c1ccc2ccncc2c1")
0.5

Now consider a different compound.
Qu. Which Tmax value belongs to `C[C@]12CC=C3C=C4CC[C@@H](N5C[C@H](O)[C@@H](O)C5)C[C@]45CC[C@]3(O5)[C@@H]1CC[C@@H]2c1ccc2ccncc2c1` ?
Ans. 2

###

Measurement target: CDK8 (Homo sapiens, UniProt P49336)
Assay overview: CDK8 IC50 determination (Example 9)
Type: biochemical
Test context: read-out: IC50 (nM) against CDK8, average
Observable: IC50
Please make sure the unit comes right after the number.

>>> observed_result("C[C@]12CC=C3C=C4CC[C@@H](N5CC[C@@H](N)C5)C[C@]45CC[C@]3(O5)[C@@H]1CC[C@@H]2c1ccc2ccncc2c1 [Compound B]")
"9.1 nM"
>>> observed_result("C[C@]12CC=C3C=C4CC[C@@H](O)C[C@]45CC[C@]3(O5)[C@@H]1CC[C@@H]2c1ccc2ccncc2c1 [Compound A]")
"9.9 nM"
>>> observed_result("C[C@]12CC=C3C=C4CC[C@@H](N5C[C@H](O)[C@@H](O)C5)C[C@]45CC[C@]3(O5)[C@@H]1CC[C@@H]2c1ccc2ccncc2c1 [Compound D]")
"6.4 nM"

Now consider a different compound.
Qu. Which IC50 value belongs to C[C@]12CC=C3C=C4CC[C@@H](N5CC(N)C5)C[C@]45CC[C@]3(O5)[C@@H]1CC[C@@H]2c1ccc2ccncc2c1 [Compound C] ?
Ans. 9.5 nM

###

Measurement target: hERG (Homo sapiens)
Assay overview: hERG (IKr) current, PatchXpress 7000A planar voltage clamp
Test context: PatchXpress functional voltage clamp
Observable: IC50 (nM)
Provide only the numeric value, understood in nM.

Qu. Which IC50 value belongs to `C[C@]12CC=C3C=C4CC[C@@H](N5CCC5)C[C@]45CCC3(O5)[C@@H]1CC[C@@H]2c1ccc2ccncc2c1` ?
Ans. 370

###

Assay overview: Pharmacokinetic profile in mice (plasma, LC-MS/MS)
Test context: male, CD-1, mouse, plasma, po, 20 mg/kg
Observable: AUC(0-inf) (ng·h/mL)
Provide only the numeric value, understood in ng·h/mL.

Qu. Which AUC(0-inf) value belongs to `C[C@]12CC=C3C=C4CC[C@@H](O)C[C@]45CC[C@]3(O5)[C@@H]1CC[C@@H]2c1ccc2ccncc2c1` ?
Ans. 7940

###

Measurement target: hERG (human ether-à-go-go-related gene) potassium channel (Homo sapiens)
Sequence (Q12809 whole entry): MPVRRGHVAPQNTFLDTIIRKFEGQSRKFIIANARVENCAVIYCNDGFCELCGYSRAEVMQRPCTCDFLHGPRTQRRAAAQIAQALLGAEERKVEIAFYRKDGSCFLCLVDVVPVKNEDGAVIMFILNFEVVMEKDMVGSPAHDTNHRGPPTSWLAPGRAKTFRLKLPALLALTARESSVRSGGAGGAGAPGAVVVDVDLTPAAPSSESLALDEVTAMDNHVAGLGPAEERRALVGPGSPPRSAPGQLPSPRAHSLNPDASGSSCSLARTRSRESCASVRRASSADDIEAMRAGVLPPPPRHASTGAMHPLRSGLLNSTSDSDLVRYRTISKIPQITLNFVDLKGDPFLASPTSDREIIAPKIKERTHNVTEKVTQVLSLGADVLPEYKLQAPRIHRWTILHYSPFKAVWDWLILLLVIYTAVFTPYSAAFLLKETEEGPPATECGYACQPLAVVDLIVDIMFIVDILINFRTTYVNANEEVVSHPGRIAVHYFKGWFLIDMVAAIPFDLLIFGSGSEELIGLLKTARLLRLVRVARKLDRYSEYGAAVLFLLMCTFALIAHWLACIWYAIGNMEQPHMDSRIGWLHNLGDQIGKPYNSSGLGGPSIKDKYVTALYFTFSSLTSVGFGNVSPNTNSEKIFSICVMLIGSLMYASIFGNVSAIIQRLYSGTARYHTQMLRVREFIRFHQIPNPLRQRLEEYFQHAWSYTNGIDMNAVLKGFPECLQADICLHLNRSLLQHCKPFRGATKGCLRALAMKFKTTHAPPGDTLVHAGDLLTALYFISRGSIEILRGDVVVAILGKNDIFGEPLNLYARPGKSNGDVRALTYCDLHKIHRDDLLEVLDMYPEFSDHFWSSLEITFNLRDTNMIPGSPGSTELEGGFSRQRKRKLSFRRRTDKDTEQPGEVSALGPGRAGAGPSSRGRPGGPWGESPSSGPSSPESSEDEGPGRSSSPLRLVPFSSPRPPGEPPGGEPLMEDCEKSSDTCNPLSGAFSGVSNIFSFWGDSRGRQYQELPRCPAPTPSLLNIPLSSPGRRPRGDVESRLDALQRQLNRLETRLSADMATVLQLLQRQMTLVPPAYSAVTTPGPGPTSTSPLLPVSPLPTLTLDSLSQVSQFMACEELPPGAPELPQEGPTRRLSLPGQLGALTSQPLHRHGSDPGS
Assay overview: cell-based
Test context: hERG IC50, QPatch HT, room temperature
Recorded IC50 by entry
Provide only the numeric value, understood in µM.

>>> observed_result("C[C@]12CC=C3C=C4CC[C@@H](N5CC(N)C5)C[C@]45CC[C@]3(O5)[C@@H]1CC[C@@H]2c1ccc2ccncc2c1 [Compound C]")
10.9
>>> observed_result("C[C@]12CC=C3C=C4CC[C@@H](N5CCCC5)C[C@]45CCC3(O5)[C@@H]1CC[C@@H]2c1ccc2ccncc2c1 [Compound E]")
0.562

Now consider a different compound.
Qu. Which IC50 value belongs to C[C@]12CC=C3C=C4CC[C@@H](N5CC[C@@H](N)C5)C[C@]45CC[C@]3(O5)[C@@H]1CC[C@@H]2c1ccc2ccncc2c1 [Compound B] ?
Ans. 10.7
